# EC50(ng/ml), 混合淋巴细胞反应(MLR), CD4+ T细胞增殖 (cck8) values compiled below
STUDY TARGET: PD-L1 (UniProt Q9NZQ7 19-238, limits assumed)
Sequence (Q9NZQ7 19-238 limits assumed): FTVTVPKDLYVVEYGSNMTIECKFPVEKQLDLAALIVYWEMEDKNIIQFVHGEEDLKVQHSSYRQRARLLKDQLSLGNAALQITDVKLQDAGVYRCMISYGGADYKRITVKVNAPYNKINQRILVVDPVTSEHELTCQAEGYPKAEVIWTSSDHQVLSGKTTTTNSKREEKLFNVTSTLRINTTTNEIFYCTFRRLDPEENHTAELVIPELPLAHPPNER
EXPERIMENT DESCRIPTION: cell-based or functional assay
Give your result in ng/mL as a bare value.

A selection of reference data follows.
AC9-E3 全抗体 (full antibody, human IgG1/kappa) (antibody, V domains shown, Full antibody expressed in HEK293E from vector pTSE) VH: EVQLVESGGGLVQPGGSLRLSCAASGCTWSDSWDHWVRQAPGKGLEWVDYESTYGGSTYYADSVKGRFTISADTSKNTAYLQMNSLRAEDTAVYYCARRHWNATFDYWGQGTLVTVSS VL: DIQMTQSPSSLSASVGDRVTITCRASQSIHNYLAWYQQKPGKAPKLLIYSASNLPSGVPSRFSGSGSGTDFTLTISSLQPEDFATYYCQQGLHTPPTFGQGTKVEIKR    11.9
AH10-E3 全抗体 (full antibody, human IgG1/kappa) (antibody, V domains shown, Full antibody expressed in HEK293E from vector pTSE) VH: EVQLVESGGGLVQPGGSLRLSCAASGWTLSDSLQHWVRQAPGKGLEWVGFQSAYGGSTYYADSVKGRFTISADTSKNTAYLQMNSLRAEDTAVYYCARRHYYTAWDYWGQGTLVTVSS VL: DIQMTQSPSSLSASVGDRVTITCRASQSIHNYLAWYQQKPGKAPKLLIYSASNLPSGVPSRFSGSGSGTDFTLTISSLQPEDFATYYCQQGLHTPPTFGQGTKVEIKR    11.4

Proceed to the following item.
Which EC50(ng/ml), 混合淋巴细胞反应(MLR), CD4+ T细胞增殖 (cck8) is reported for this binder? BH2-B11 全抗体 (full antibody, human IgG1/kappa) (antibody, V domains shown, Full antibody expressed in HEK293E from vector pTSE) VH: EVQLVESGGGLVQPGGSLRLSCAASGLTWSDSYKHWVRQAPGKGLEWVHWNSTYGGSTYYADSVKGRFTISADTSKNTAYLQMNSLRAEDTAVYYCARRHFASTWDYWGQGTLVTVSS VL: DIQMTQSPSSLSASVGDRVTITCRASQNIHNSLAWYQQKPGKAPKLLIYGASSLESGVPSRFSGSGSGTDFTLTISSLQPEDFATYYCQQERRVPWTFGQGTKVEIKR 6.73
